In this section, each of the compounds is paired with its reported pIC50.
Target System: BRD4 (Homo sapiens, UniProt O60885)
Assay Comment: Time resolved fluorescence resonance energy transfer (TR-FRET) binding assay, bromodomain BRD4
Experimental Setup: one of the FRET assays described; read-out: FRET BRD4 IC50
pIC50: −log10 of the molar value.
Outcome Measure: pIC50

[2H]C([2H])([2H])c1onc(C)c1-c1cnc2c3cnc(C(C)(C)O)cc3n([C@H](c3ccc(F)cc3)C3CCOCC3)c2c1: > 9.00
[2H]C([2H])([2H])c1nnn(C)c1-c1cnc2c3c(N(C)CC)nccc3n([C@H](c3ccccc3)C3CCOCC3)c2c1: > 9.00
Cc1nnn(C)c1-c1cnc2c3ccc(N4CCC(C#N)CC4)nc3n([C@H](c3ccccc3F)C3CCOCC3)c2c1: > 8.00
[2H]C([2H])([2H])c1nnn(C)c1-c1cnc2c3ccc(NCCS(C)(=O)=O)nc3n([C@H](c3ccccc3)C3CCOCC3)c2c1: > 9.00
Cc1nnn(C)c1-c1cnc2c3cc(C(C)(C)O)cnc3n([C@H](c3ccccc3)C3CCOCC3)c2c1: > 8.00
COc1nccc2c3ncc(-c4c(C)nnn4C)cc3n(C(c3cccc(F)c3F)C3CCOCC3)c12 (single isomer, unassigned) [Example 22]: > 8.00
CC(=O)c1cc2c(cn1)c1ncc(-c3c(C)noc3C)cc1n2[C@H](c1ccc(F)cc1)C1CCOCC1: > 8.00
Cc1nnn(C)c1-c1cnc2c3ccc(N4CCN(S(=O)(=O)N(C)C)CC4)nc3n([C@H](c3ccccc3F)C3CCOCC3)c2c1: > 9.00
Cc1nnn(C)c1-c1cnc2c3ccc(N4CCOCC4)nc3n([C@H](c3ccccc3)C3CCOCC3)c2c1: > 9.00
Cc1nnn(C)c1-c1cnc2c3ccc(S(=O)(=O)N4CCN(C)CC4)nc3n([C@H](c3ccccc3)C3CCOCC3)c2c1: > 8.00
COc1cc2c(c(C)n1)c1ncc(-c3c(C)nnn3C)cc1n2[C@H](c1ccccc1)C1CCOCC1: > 9.00
[2H]C([2H])([2H])c1nnn(C)c1-c1cnc2c3ccc(Cl)nc3n([C@H](c3ccccc3F)C3CCOCC3)c2c1: > 8.00
COc1ncc(C(=O)N2CC(F)C2)c2c1c1ncc(-c3c(C)nnn3C)cc1n2[C@H](c1ccccc1)C1CCOCC1: > 8.00
[2H]C([2H])([2H])c1nnn(C)c1-c1cnc2c3cnc(Cl)cc3n([C@H](c3ncccc3F)C3CCOCC3)c2c1 (stereo in doubt): > 8.00
Cc1nnn(C)c1-c1cnc2c3c(NS(C)(=O)=O)ncc(S(C)(=O)=O)c3n([C@H](c3ccccc3)C3CCOCC3)c2c1: > 8.00
COc1ncc(C(C)(C)O)c2c1c1ncc(-c3c(C)noc3C)cc1n2[C@H](c1ccccc1)C1CCOCC1: > 8.00
CNCCN(C)c1ccc2c3ncc(-c4c(C)nnn4C)cc3n([C@H](c3ccccc3F)C3CCOCC3)c2n1: > 9.00
[2H]C([2H])([2H])C(C)(O)c1ccc2c3ncc(-c4c(C)nnn4C)cc3n([C@H](c3ccccc3)C3CCOCC3)c2n1 (some centres unmarked): > 9.00
[2H]C([2H])([2H])c1nnn(C)c1-c1cnc2c3c(OC(C)C)nccc3n([C@H](c3ccccc3)C3CCOCC3)c2c1: > 8.00
[2H]C([2H])([2H])c1nnn(C)c1-c1cnc2c3cnc(-c4c(C([2H])([2H])[2H])nnn4C)cc3n([C@H](c3ccc(F)cc3)C3CCOCC3)c2c1: > 8.00
[2H]C([2H])([2H])c1nnn(C)c1-c1cnc2c3ccc(N(C)C)nc3n([C@H](c3ccccc3F)C3CCOCC3)c2c1: > 8.00
[2H]C([2H])([2H])c1nnn(C)c1-c1cnc2c3c(OC)ncc(S(C)(=O)=O)c3n(C(c3cccc(F)c3)C3CCOCC3)c2c1 (single isomer, unassigned) [Example 87]: > 5.82
COc1ncc(S(C)(=O)=O)c2c1c1ncc(-c3c(C)noc3C)cc1n2C(c1ccccc1)C1CCC(F)(F)CC1 (single isomer, unassigned) [Example 88]: > 8.00
[2H]C([2H])([2H])c1nnn(C)c1-c1cnc2c3ccc(Cl)nc3n(C(c3ccccc3)C3CCC(F)(F)CC3)c2c1 (centres unmarked): > 5.82
Cc1noc(C)c1-c1cnc2c3cnc(Cl)cc3n(C(c3ccc(Cl)cn3)C3CCOCC3)c2c1 (single isomer, unassigned) [Example 327]: > 5.82
[2H]C([2H])([2H])c1nnn(C)c1-c1cnc2c3ccc(-c4c(C([2H])([2H])[2H])nnn4C)nc3n([C@H](c3ccccc3F)C3CCOCC3)c2c1: > 8.00

Reference for the values: patent US9725449B2
